# experimental system: human CYP3A4 (Homo sapiens, UniProt P08684)
# Construct: from tissue; host or cells: liver microsomes
# Sequence (P08684 whole entry): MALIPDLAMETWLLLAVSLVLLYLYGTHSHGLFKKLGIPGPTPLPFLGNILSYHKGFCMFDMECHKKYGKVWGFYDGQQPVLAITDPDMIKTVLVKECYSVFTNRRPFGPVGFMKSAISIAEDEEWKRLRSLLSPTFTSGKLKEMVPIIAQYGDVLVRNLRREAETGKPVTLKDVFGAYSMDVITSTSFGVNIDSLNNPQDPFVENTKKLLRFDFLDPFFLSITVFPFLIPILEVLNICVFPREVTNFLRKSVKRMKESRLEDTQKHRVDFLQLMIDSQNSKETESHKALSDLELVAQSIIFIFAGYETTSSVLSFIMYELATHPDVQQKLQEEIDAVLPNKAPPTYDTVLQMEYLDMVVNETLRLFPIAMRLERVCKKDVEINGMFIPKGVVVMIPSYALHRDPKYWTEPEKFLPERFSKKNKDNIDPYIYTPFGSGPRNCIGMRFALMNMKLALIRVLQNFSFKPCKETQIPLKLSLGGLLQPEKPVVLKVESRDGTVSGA
# assay summary: Time-dependent inhibition assay (IC50 shift approach), liver microsomes
# Assay type: in vitro ADME
# experimental setup: human liver microsomes 0.1 mg/mL, 30 min pre-incubation with/without NADPH, midazolam probe
reported property: CYP3A4 IC50 shift (TDI shift)

1. Cl.O=C(/C=C/CNCCOc1ccc(/C(=C(\c2ccccc2)C2CCC2)c2ccc3[nH]nc(F)c3c2)cc1)N1CCCC1
2. Cl.O=C(/C=C/CNCCOc1ccc(/C(=C(/CC(F)(F)F)c2ccccc2)c2ccc3[nH]nc(F)c3c2)cc1)N1CCOCC1
3. Cl.O=C(/C=C/CNCCOc1ccc(/C(=C(/CC(F)(F)F)c2ccccc2)c2ccc3[nH]ncc3c2)cn1)N1CCCC1
query: Order the 3 listed items from lowest to highest according to CYP3A4 IC50 shift (TDI shift). As an answer, provide the labels arranged in the order called for.
result: 2, 1, 3
